# PROCEDURE_TEXT: total protein half-life in vivo (active degradation + dilution); higher = more stable protein
# REPORTED_CONDITIONS: E. coli NCM3722 delta-clpP; growth: N-lim chemostat; doubling time 6 h
Listed here are sequences together with their documented total protein half-life in vivo.
Provide only the numeric value, understood in h.

Data request: Identify measured total protein half-life in vivo corresponding to `MKMIEVVAAIIERDGKILLAQRPAQSDQAGLWEFAGGKVEPDESQRQALVRELREELGIEATVGEYVASHQREVSGRIIHLHAWHVPDFHGTLQAHEHQALVWCSPEEALQYPLAPADIPLLEAFMALRAARPAD`
Data returned: 4.63

Data request: Identify measured total protein half-life in vivo corresponding to MIRNVLLAFMICSGMTLLGGCSSVMSHTGGKEGTYPGTRASATMIGDDETNWGTKSLAILDMPFTAVMDTLLLPWDVFRKDSSVRSRVEKSEANAQATNAVIPPARMPDN [P0ADM4]
Data returned: 6

Data request: Name the recorded total protein half-life in vivo of the sequence listed here: `MMKTVKHLLCCAIAASALISTGVHAASWKDALSSAASELGNQNSTTQEGGWSLASLTNLLSSGNQALSADNMNNAAGILQYCAKQKLASVTDAENIKNQVLEKLGLNSEEQKEDTNYLDGIQGLLKTKDGQQLNLDNIGTTPLAEKVKTKACDLVLKQGLNFIS`
Data returned: 2.37

Data request: Supply reported total protein half-life in vivo belonging to this sequence: `MSDNIRVGLIGYGYASKTFHAPLIAGTPGQELAVISSSDETKVKADWPTVTVVSEPKHLFNDPNIDLIVIPTPNDTHFPLAKAALEAGKHVVVDKPFTVTLSQARELDALAKSLGRVLSVFHNRRWDSDFLTLKGLLAEGVLGEVAYFESHFDRFRPQVRDRWREQGGPGSGIWYDLAPHLLDQAITLFGLPVSMTVDLAQLRPGAQSTDYFHAILSYPQRRVILHGTMLAAAESARYIVHGSRGSYVKYGLDPQEERLKNGERLPQEDWGYDMRDGVLTRVEGEERVEETLLTVPGNYPAYYAAIRDALNGDGENPVPASQAIQVMELIELGIESAKHRATLCLA`
Data returned: 4.69

* * *

# PROCEDURE_TEXT: total protein half-life in vivo (active degradation + dilution); higher = more stable protein
# REPORTED_CONDITIONS: E. coli NCM3722 delta-clpP; growth: N-lim chemostat; doubling time 6 h
The sequences listed here are annotated with their total protein half-life in vivo.
// units = h; emit number, no label

| QUERY_SEQUENCE | total protein half-life in vivo (h) |
| --- | --- |
| MNLQHHFLIAMPALQDPIFRRSVVYICEHNTNGAMGIIVNKPLENLKIEGILEKLKITPEPRDESIRLDKPVMLGGPLAEDRGFILHTPPSNFASSIRISDNTVMTTSRDVLETLGTDKQPSDVLVALGYASWEKGQLEQEILDNAWLTAPADLNILFKTPIADRWREAAKLIGVDILTMPGVAGHA [P0A8W5] | 5.88 |

Would you kindly look at the next entry?
Data request: // Input: MCTTCGCGEGNLYIEGDEHNPHSAFRSAPFAPAARPKMKITGIKAPEFTPSQTEEGDLHYGHGEAGTHAPGMSQRRMLEVEIDVLDKNNRLAERNRARFAARKQLVLNLVSSPGSGKTTLLTETLMRLKDSVPCAVIEGDQQTVNDAARIRATGTPAIQVNTGKGCHLDAQMIADAAPRLPLDDNGILFIENVGNLVCPASFDLGEKHKVAVLSVTEGEDKPLKYPHMFAAASLMLLNKVDLLPYLNFDVEKCIACAREVNPEIEIILISATSGEGMDQWLNWLETQRCA [P0AAN3] . Output its total protein half-life in vivo only.
Data returned: 3.15

* * *

# PROCEDURE_TEXT: total protein half-life in vivo (active degradation + dilution); higher = more stable protein
# REPORTED_CONDITIONS: wild type E. coli NCM3722; growth: N-lim chemostat; doubling time 6 h
QUANTITY_NAME: total protein half-life in vivo (h)
Please state the figure in h; there is no need to write the unit.

| QUERY_SEQUENCE | NUMBER |
| --- | --- |
| MKPRQRQAAILEYLQKQGKCSVEELAQYFDTTGTTIRKDLVILEHAGTVIRTYGGVVLNKEESDPPIDHKTLINTHKKELIAEAAVSFIHDGDSIILDAGSTVLQMVPLLSRFNNITVMTNSLHIVNALSELDNEQTILMPGGTFRKKSASFHGQLAENAFEHFTFDKLFMGTDGIDLNAGVTTFNEVYTVSKAMCNAAREVILMADSSKFGRKSPNVVCSLESVDKLITDAGIDPAFRQALEEKGIDVIITGESNE | 6.06 |
| MRLGTFHKKKRFYINKIKINFLSFLFRNKINNQITDPAQVKSCLIIHDNNKLGDLIVLSSIYRELYSKGVKITLLTNRKGGEFLSNNKNIFEFCIKESTGFLEMLTLCKHLRDLQFDIVLDPFETMPSFKHSLILSSLKDSYILGFDHWYKRYYSFYHPHDECLKEHMSTRAIEILKHIYGEGKFSTNYDLHLPVDVEDKIKEFIGDTRIVIINPLGAKKICRLTFEQIKVIYQEVKTHFENYRIIFTGLPQDLLTIPILEIETLPFDEFIYTVALTKYSDFVISVDTALVHIAAAYHKPTLAFYPNSRTPEYPSHLIWSPNHHKSIQIVSPTYTVKDIDTETLTNSVKRLSCIDKK | 5.67 |

The record that follows has no total protein half-life in vivo shown yet.
Data request: Indicate its recorded total protein half-life in vivo; the sequence in question is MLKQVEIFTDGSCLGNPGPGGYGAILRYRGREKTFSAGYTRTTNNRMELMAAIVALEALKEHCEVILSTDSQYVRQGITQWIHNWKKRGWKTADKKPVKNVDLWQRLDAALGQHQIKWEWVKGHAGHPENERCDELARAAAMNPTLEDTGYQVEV [P0A7Y4]
Data returned: 4.7

* * *

# PROCEDURE_TEXT: total protein half-life in vivo (active degradation + dilution); higher = more stable protein
# REPORTED_CONDITIONS: wild type E. coli NCM3722; growth: N-lim chemostat; doubling time 12 h
QUANTITY_NAME: total protein half-life in vivo (h)
Number in h, nothing else.

| QUERY_SEQUENCE | total protein half-life in vivo / h |
| --- | --- |
| MNMKKLATLVSAVALSATVSANAMAKDTIALVVSTLNNPFFVSLKDGAQKEADKLGYNLVVLDSQNNPAKELANVQDLTVRGTKILLINPTDSDAVGNAVKMANQANIPVITLDRQATKGEVVSHIASDNVLGGKIAGDYIAKKAGEGAKVIELQGIAGTSAARERGEGFQQAVAAHKFNVLASQPADFDRIKGLNVMQNLLTAHPDVQAVFAQNDEMALGALRALQTAGKSDVMVVGFDGTPDGEKAVNDGKLAATIAQLPDQIGAKGVETADKVLKGEKVQAKYPVDLKLVVKQ | 10.9 |

Data request: Give the reported total protein half-life in vivo for this sequence. `MINDIKWVQAQRKATDWRQAVEIATRPLVAYGAAQPCYVNGIIENTLNWGPYYLIAPGIALPHARPEQGANYNQVSITTLRTPVAFGNEECDPVWLLLCVSATDANAHILTIQRISQFIDSPQRLTAVGNASTDDALFALVSG`
Data returned: 8.43

Data request: Give recorded total protein half-life in vivo. `MKLAVYSTKQYDKKYLQQVNESFGFELEFFDFLLTEKTAKTANGCEAVCIFVNDDGSRPVLEELKKHGVKYIALRCAGFNNVDLDAAKELGLKVVRVPAYDPEAVAEHAIGMMMTLNRRIHRAYQRTRDANFSLEGLTGFTMYGKTAGVIGTGKIGVAMLRILKGFGMRLLAFDPYPSAAALELGVEYVDLPTLFSESDVISLHCPLTPENYHLLNEAAFEQMKNGVMIVNTSRGALIDSQAAIEALKNQKIGSLGMDVYENERDLFFEDKSNDVIQDDVFRRLSACHNVLFTGHQAFLTAEALTSISQTTLQNLSNLEKGETCPNELV`
Data returned: 7.53

Data request: Determine from records and report total protein half-life in vivo for MTEAQRHQILLEMLAQLGFVTVEKVVERLGISPATARRDINKLDESGKLKKVRNGAEAITQQRPRWTPMNLHQAQNHDEKVRIAKAASQLVNPGESVVINCGSTAFLLGREMCGKPVQIITNYLPLANYLIDQEHDSVIIMGGQYNKSQSITLSPQGSENSLYAGHWMFTSGKGLTAEGLYKTDMLTAMAEQKMLSVVGKLVVLVDSSKIGERAGMLFSRADQIDMLITGKNANPEILQQLEAQGVSILRV [P0A9W0]
Data returned: 10.9

* * *

# PROCEDURE_TEXT: total protein half-life in vivo (active degradation + dilution); higher = more stable protein
# REPORTED_CONDITIONS: E. coli NCM3722 delta-clpP; growth: N-lim chemostat; doubling time 6 h
QUANTITY_NAME: total protein half-life in vivo (h)
Report the value in h with no unit label.

| QUERY_SEQUENCE | total protein half-life in vivo, h |
| --- | --- |
| MKKNQFLKESDVTAESVFFMKRRQVLKALGISATALSLPHAAHADLLSWFKGNDRPPAPAGKALEFSKPAAWQNNLPLTPADKVSGYNNFYEFGLDKADPAANAGSLKTDPWTLKISGEVAKPLTLDHDDLTRRFPLEERIYRMRCVEAWSMVVPWIGFPLHKLLALAEPTSNAKYVAFETIYAPEQMPGQQDRFIGGGLKYPYVEGLRLDEAMHPLTLMTVGVYGKALPPQNGAPVRLIVPWKYGFKGIKSIVSIKLTRERPPTTWNLAAPDEYGFYANVNPYVDHPRWSQATERFIGSGGILDVQRQPTLLFNGYAAQVASLYRGLDLRENF | 5.46 |

Data request: Please report total protein half-life in vivo for the following sequence: MEKLRVGIVFGGKSAEHEVSLQSAKNIVDAIDKSRFDVVLLGIDKQGQWHVSDASNYLLNADDPAHIALRPSATSLAQVPGKHEHQLIDAQNGQPLPTVDVIFPIVHGTLGEDGSLQGMLRVANLPFVGSDVLASAACMDKDVTKRLLRDAGLNIAPFITLTRANRHNISFAEVESKLGLPLFVKPANQGSSVGVSKVTSEEQYAIAVDLAFEFDHKVIVEQGIKGREIECAVLGNDNPQASTCGEIVLTSDFYAYDTKYIDEDGAKVVVPAAIAPEINDKIRAIAVQAYQTLGCAGMARVDVFLTPENEVVINEINTLPGFTNISMYPKLWQASGLGYTDLITRLIELALERHAADNALKTTM [P0A6J8]
Data returned: 5.65
